Please go through the items and note down their EC50 (µM), activation of Tango CMKLR1-bla U2OS cells.
Target: T1, human Chemokine like receptor 1 (human, UniProt Q99788 1-373)
T1 sequence (looked up): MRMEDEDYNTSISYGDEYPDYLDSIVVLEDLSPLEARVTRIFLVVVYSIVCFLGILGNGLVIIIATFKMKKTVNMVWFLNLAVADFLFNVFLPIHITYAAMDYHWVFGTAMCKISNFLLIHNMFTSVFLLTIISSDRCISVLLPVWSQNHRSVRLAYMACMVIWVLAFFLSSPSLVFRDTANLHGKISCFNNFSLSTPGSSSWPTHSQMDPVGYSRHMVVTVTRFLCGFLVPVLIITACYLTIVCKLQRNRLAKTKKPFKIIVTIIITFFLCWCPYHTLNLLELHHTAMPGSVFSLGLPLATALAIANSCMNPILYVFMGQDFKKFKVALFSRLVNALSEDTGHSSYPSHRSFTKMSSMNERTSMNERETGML
Assay: cell-based or functional assay
Square brackets hold non-standard residues; d marks the D form. Ends that are not written are not given here. * marks the point of attachment. PEG8 = NCCOCCOCCOCCOCCOCCOCCOCCOCCC(=O)O; 2Nal = N[C@@H](Cc1ccc2ccccc2c1)C(=O)O; dNMeY = CN[C@H](Cc1ccc(O)cc1)C(=O)O; Palmitoyl = CCCCCCCCCCCCCCCC(=O)*; NMeF = CN[C@@H](Cc1ccccc1)C(=O)O; Tic = O=C(O)[C@@H]1Cc2ccccc2CN1; NMeL = CN[C@@H](CC(C)C)C(=O)O; NMeS = CN[C@@H](CO)C(=O)O
Return type: number; implicit unit µM.

Challenge: Give the reported value of EC50 (µM), activation of Tango CMKLR1-bla U2OS cells for this record: {Palmitoyl-PEG8}-GG[dNMeY]F[NMeL]P[dS]Q[2Nal][dA][Tic][NMeS] [YW-178]
Response given: 0.0021

Challenge: Give the reported value of EC50 (µM), activation of Tango CMKLR1-bla U2OS cells for this record: [dNMeY]F[NMeL][Pro(4Ph)][dS]Q[2Nal][dA][Tic]S [YW-216]
Response given: 0.0013

Challenge: Give the reported value of EC50 (µM), activation of Tango CMKLR1-bla U2OS cells for this record: [dY][NMeF][NMeL]P[dS]QF[dA][Tic]S-OH (N-terminus assumed; SMILES CC(C)C[C@@H](C(=O)N1CCC[C@H]1C(=O)N[C@H](CO)C(=O)N[C@@H](CCC(N)=O)C(=O)N[C@@H](Cc1ccccc1)C(=O)N[C@H](C)C(=O)N1Cc2ccccc2C[C@H]1C(=O)N[C@@H](CO)C(=O)O)N(C)C(=O)[C@H](Cc1ccccc1)N(C)C(=O)[C@H](N)Cc1ccc(O)cc1) [YW-105]
Response given: 0.0106
